Values from patent US11912686B2

subject of test: human LPAR1 (Homo sapiens (Human))
Sequence (Q92633 whole entry): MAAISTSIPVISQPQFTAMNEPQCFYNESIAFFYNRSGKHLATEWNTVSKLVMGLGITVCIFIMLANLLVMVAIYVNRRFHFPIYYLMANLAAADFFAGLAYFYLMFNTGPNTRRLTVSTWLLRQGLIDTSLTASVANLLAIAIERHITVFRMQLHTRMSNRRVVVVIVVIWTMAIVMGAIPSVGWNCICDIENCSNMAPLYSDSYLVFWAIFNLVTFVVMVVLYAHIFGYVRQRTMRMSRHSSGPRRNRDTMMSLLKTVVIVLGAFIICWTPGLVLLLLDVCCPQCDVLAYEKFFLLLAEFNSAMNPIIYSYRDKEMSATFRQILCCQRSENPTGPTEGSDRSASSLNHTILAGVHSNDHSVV
measurement protocol: LPAR1 intracellular calcium mobilization assay (antagonist mode, FLIPR)
Type: cell-based
measurement context: CHO-K1 EDG2 cells expressing human LPAR1, LPA 18:2 at EC80 (100 nM), test compound 0.5 nM to 10 μM
property: EC50 (nM)
A number alone suffices; assume nM.

Per the record, "C[C@@H](OC(=O)Nc1c(-c2ccc(NC(=O)C3(Cl)CC3)cn2)nnn1C)c1cccnc1Cl" has EC50 of 75.2

Recorded EC50 (compound "Cc1noc(C(=O)Nc2ccc(-c3nnn(C)c3NC(=O)O[C@H](C)c3cc(F)cnc3F)nc2)c1C" ): 140

# EC50 of "CC(=O)Nc1ccc(-c2nnn(C)c2NC(=O)O[C@H](C)c2cc(F)cnc2Cl)nc1" = 452

EC50 recorded for this compound, "C[C@@H](C#N)C(=O)Nc1ccc(-c2nnn(C)c2NC(=O)O[C@H](C)c2cccnc2Cl)nc1" , is 132

Lab note: "C[C@@H](OC(=O)Nc1c(-c2ncc(NC(=O)c3ccc(Cl)nc3)cn2)nnn1C)c1cc(F)cnc1F" gave EC50 of 1500

Measured EC50, "C[C@@H](OC(=O)Nc1c(-c2ccc(NC(=O)C(F)(F)F)cc2)nnn1C)c1cccc(F)c1" : 6520

Consider "CC(=O)Nc1ccc(-c2nnn(C)c2NC(=O)O[C@H](C)c2cccnc2Cl)nc1F" . Its measured EC50 is 1510

Entry "C[C@@H](OC(=O)Nc1c(-c2ccc(NC(=O)C3(C#N)CN(CC(F)(F)F)C3)cn2)nnn1C)c1cc(F)cnc1F" — recorded EC50 = 1000

Recorded EC50 (compound "C[C@@H](OC(=O)Nc1c(-c2ccc(NC(=O)c3cc(C#N)no3)cn2)nnn1C)c1cc(F)cnc1F" ): 19.3

So, "C[C@@H](OC(=O)Nc1c(-c2ccc(NC(=O)[C@]3(C)C[C@@H](C#N)C3)cn2)nnn1C)c1cccnc1Cl" ? Its EC50 was 123

# EC50 (compound: C[C@@H](OC(=O)Nc1c(-c2ccc(NC(=O)C3(C#N)CCNC3)cn2)nnn1C)c1cc(F)cnc1F (some centres unmarked) ) is 669

"C[C@@H](OC(=O)Nc1c(-c2ccc(NC(=O)C34COC(C3)C4)cn2)nnn1C)c1cccnc1Cl" has a reported EC50 of 560

Query "C[C@@H](OC(=O)Nc1c(-c2ccc(NC(=O)C#CC3CC3)cn2)nnn1C)c1cccnc1Cl" yields EC50 of 23.4

The compound identified as "C[C@@H](OC(=O)Nc1c(-c2ccc(NC(=O)c3ccc(C(F)F)nc3)cn2)nnn1C)c1cccnc1F" registered its EC50 at 391

response.value for "Cc1nccc(C(=O)Nc2ccc(-c3nnn(C)c3NC(=O)O[C@H](C)c3cc(F)cnc3F)nc2)n1" (field: EC50) = 537

// field: EC50; key: "C[C@@H](OC(=O)Nc1c(-c2ccc(NC(=O)c3ccccc3)cn2)nnn1C)c1cccnc1Cl" ; value = 261

The compound identified as "Cc1nnc(C(=O)Nc2ccc(-c3nnn(C)c3NC(=O)O[C@H](C)c3cc(F)cnc3F)nc2)o1" registered its EC50 at 443

Reported EC50 for "C[C@@H](OC(=O)Nc1c(-c2ccc(NC(=O)C34CC(C3)C4)cn2)nnn1C)c1cccnc1Cl" was 40.8

Noted for "C[C@@H](OC(=O)Nc1c(-c2ccc(NC(=O)[C@@H]3C[C@H]3F)cn2)nnn1C)c1cccnc1Cl" : its EC50 reads 53

For reference, reported EC50 for "C[C@@H](OC(=O)Nc1c(-c2ccc(NC(=O)[C@H]3C[C@H](O)C3)cn2)nnn1C)c1cccnc1Cl" stands at 668

// EC50 value for "Cc1ncc(C(=O)Nc2ccc(-c3nnn(C)c3NC(=O)O[C@H](C)c3cc(F)cnc3F)nc2)o1" : 209

Notebook: "C[C@@H](OC(=O)Nc1c(-c2ccc(NC(=O)[C@H]3[C@@H]4CN(CC(F)(F)F)C[C@@H]43)cn2)nnn1C)c1cccnc1Cl" , EC50 read as 337

The value of EC50 measured for the compound "Cc1ncc(F)cc1[C@@H](C)OC(=O)Nc1c(-c2ccc(NC(=O)C3CC(F)(F)C3)cn2)nnn1C" turned out to be 35.4

According to the records, this compound C[C@@H](OC(=O)Nc1c(-c2ccc(NC(=O)C3CC(F)(C#N)C3)cn2)nnn1C)c1cccnc1Cl (some centres unmarked) displays EC50 of 626

Measured EC50, "C[C@@H](OC(=O)Nc1c(-c2ccc(NC(=O)c3ccc(Cl)nc3)cn2)nnn1C)c1cccnc1F" : 143

The recorded EC50 for "C[C@@H](OC(=O)Nc1c(-c2ccc(NC(=O)N3CCCC3)cn2)nnn1C)c1cccnc1Cl" is 832

Item: "C[C@@H](OC(=O)Nc1c(-c2ccc(NC(=O)C3CS(=O)(=O)C3)cn2)nnn1C)c1cccnc1Cl" | EC50: 497

Input "C[C@@H](OC(=O)Nc1c(-c2ccc(NC(=O)N3CC(C#N)C3)cn2)nnn1C)c1cccnc1Cl" . Output EC50: 620

Item: "C[C@@H](OC(=O)Nc1c(-c2ccc(NC(=O)C3(C(F)(F)F)CC4(CCC4)C3)cn2)nnn1C)c1cccnc1Cl" | EC50: 83.6
